Consider the following binders; for each one, report its pKd.
# ASSAY SYSTEM: T1, human recombinant CD117 (c-Kit) from Sino Biological (Catalog No. 11996-H08H) (human, UniProt P10721 26-524)
# T1 construct: also called soluble antigen
# T1 sequence (P10721 26-524 limits assumed): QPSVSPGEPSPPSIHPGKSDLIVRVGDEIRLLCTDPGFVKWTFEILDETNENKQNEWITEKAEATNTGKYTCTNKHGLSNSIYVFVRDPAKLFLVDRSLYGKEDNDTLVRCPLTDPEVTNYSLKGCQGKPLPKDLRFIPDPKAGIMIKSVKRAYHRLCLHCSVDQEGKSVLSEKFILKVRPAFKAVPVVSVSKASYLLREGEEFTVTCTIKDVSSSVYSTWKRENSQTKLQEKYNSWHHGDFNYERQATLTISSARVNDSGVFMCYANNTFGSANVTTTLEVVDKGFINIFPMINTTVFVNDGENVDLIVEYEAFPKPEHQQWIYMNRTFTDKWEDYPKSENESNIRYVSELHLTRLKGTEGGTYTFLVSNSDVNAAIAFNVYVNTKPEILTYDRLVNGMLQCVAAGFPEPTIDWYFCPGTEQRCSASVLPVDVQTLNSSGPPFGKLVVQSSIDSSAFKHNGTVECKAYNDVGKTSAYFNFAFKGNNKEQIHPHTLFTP
# PROCEDURE DETAILS: BLI Octet, set-up as in Example 2
// scale note: pKd = -log10(conc_M); give the bare number

For Weisshorn (antibody, V domains shown, IgG; also called VH1/VL1.2; VH1/LC1.2) VH: QVQLVQSGAEVKKPGASVKVSCKASGYTFTSYNMHWVRQAPGQGLEWMGVIYSGNGDTSYNQKFKGRVTMTTDTSTSTAYMELRSLTSDDTAVYYCARERDTRFGNWGQGTLVTVSA VL: EIVLTQSPSSLSASVGDRVTITCRASESVDIYGQSFMHWYQQKPGKAPKLLIYLASNLESGVPSRFSGSGSGTDFTLTISSLQPEDFATYYCQQNNEDPYTFGQGTKLEIKR , write its pKd.
9.52

Kindly indicate its recorded pKd. Item: Piz Argient (antibody, V domains shown, IgG; also called VH1/VL1.27) VH: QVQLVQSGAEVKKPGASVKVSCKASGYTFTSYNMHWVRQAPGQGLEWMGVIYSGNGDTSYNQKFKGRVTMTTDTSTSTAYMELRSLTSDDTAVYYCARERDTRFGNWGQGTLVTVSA VL: EIVLTQSPSSLSASVGDRVTITCRASESVDIYGHSFMHWYQQKPGKAPKLLIYLASNLESGVPSRFSGSGSGTDFTLTISSLQPEDFATYYCQQNKEEPYTFGQGTKLEIKR
8.48
